Provenance of the data: patent US20250206828A1

Molecular target: T1, human adenosine A2A receptor (A2aR) (human, UniProt P29274 1-412)
T1 construct: Assays used HEK293 cells stably overexpressing human A2aR (BPS Bioscience 79381), human A2aR-expressing CHO cells, or endogenous A2aR on human PBMC; also called human A2aR; hA2aR
T1 sequence (P29274 whole entry): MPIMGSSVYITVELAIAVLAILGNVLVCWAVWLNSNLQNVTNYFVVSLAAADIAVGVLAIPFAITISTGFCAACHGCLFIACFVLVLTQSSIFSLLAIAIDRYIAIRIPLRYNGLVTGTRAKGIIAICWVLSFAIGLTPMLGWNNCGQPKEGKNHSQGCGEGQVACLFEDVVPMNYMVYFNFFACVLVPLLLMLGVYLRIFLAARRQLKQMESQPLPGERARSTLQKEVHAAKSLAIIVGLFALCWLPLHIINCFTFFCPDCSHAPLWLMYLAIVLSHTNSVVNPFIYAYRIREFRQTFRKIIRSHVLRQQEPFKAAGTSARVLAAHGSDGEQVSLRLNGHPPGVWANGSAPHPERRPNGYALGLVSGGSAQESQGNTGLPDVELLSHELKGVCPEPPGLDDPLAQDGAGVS
Assay: flow cytometry, HEK293-hA2aR cells, supernatant 1 ug/ml
Field: MFI. Provide a value for each of the binders that follow.
Give bare numbers, in MFI.

Field: example entries. Status: answers known.
{"binder": "Hu3F6-H4/Hu3F6-L3 (antibody, human IgG1, V domains shown, Human IgG1 FES (L234F, L235E, P331S) and human Ig kappa constant domains) VH: EVQLVQSGAEVKKPGASVKVSCKTSGFAFTSYWMNWVRQAPGQGLEWIGRIDPSDSEAHYHHKFWGRATLTVDKSSSTVYMELSSLRSEDTAVYYCLRSLYGKGDYWGHGTTVTVSS VL: DVVMTQSPLSLPVTLGQPASISCRSSQSLVHRNGNTYLEWYQQRPGQSPRLLIYKVSNRFSGVPDRFSGSGSGTDFTLKISRVEAEDVGVYYCYQGSHVPLTFGGGTKVEIK", "MFI, MFI": 1960}
{"binder": "Hu3F6-H2/Hu3F6-L6 (antibody, human IgG1, V domains shown, Human IgG1 FES (L234F, L235E, P331S) and human Ig kappa constant domains) VH: EVQLVQSGAEVKKPGASVKVSCKTSGFAFTSYWMNWVRQAPGQGLEWMGRIDPSDSEAHYHHKFWGRVTMTVDTSTSTVYMELSSLRSEDTAVYYCLRSLYGKGDYWGHGTTVTVSS VL: DIVMTQTPPSLPVNPGEPASISCRSSQSLVHRNGNTYLEWYLQKPGQSPQLLIYKVSNRFSGVPDRFSGSGSGSDFTLKISWVEAEDVGVYYCYQGSHVPLTFGGGTKVEIK", "MFI, MFI": 1580}
{"binder": "Hu3F6-H1/Hu3F6-L6 (antibody, human IgG1, V domains shown, Human IgG1 FES (L234F, L235E, P331S) and human Ig kappa constant domains) VH: QVQLVQSGAEVKKPGASVKVSCKASGFAFTSYWMNWVRQAPGQGLEWMGRIDPSDSEAHYHHKFWGRVTMTRDTSTSTVYMELSSLRSEDTAVYYCLRSLYGKGDYWGHGTTVTVSS VL: DIVMTQTPPSLPVNPGEPASISCRSSQSLVHRNGNTYLEWYLQKPGQSPQLLIYKVSNRFSGVPDRFSGSGSGSDFTLKISWVEAEDVGVYYCYQGSHVPLTFGGGTKVEIK", "MFI, MFI": 313}
{"binder": "Hu3F6-H4/Hu3F6-L6 (antibody, human IgG1, V domains shown, Human IgG1 FES (L234F, L235E, P331S) and human Ig kappa constant domains) VH: EVQLVQSGAEVKKPGASVKVSCKTSGFAFTSYWMNWVRQAPGQGLEWIGRIDPSDSEAHYHHKFWGRATLTVDKSSSTVYMELSSLRSEDTAVYYCLRSLYGKGDYWGHGTTVTVSS VL: DIVMTQTPPSLPVNPGEPASISCRSSQSLVHRNGNTYLEWYLQKPGQSPQLLIYKVSNRFSGVPDRFSGSGSGSDFTLKISWVEAEDVGVYYCYQGSHVPLTFGGGTKVEIK", "MFI, MFI": 1960}
{"binder": "Hu3F6-H1/Hu3F6-L2 (antibody, human IgG1, V domains shown, Human IgG1 FES (L234F, L235E, P331S) and human Ig kappa constant domains) VH: QVQLVQSGAEVKKPGASVKVSCKASGFAFTSYWMNWVRQAPGQGLEWMGRIDPSDSEAHYHHKFWGRVTMTRDTSTSTVYMELSSLRSEDTAVYYCLRSLYGKGDYWGHGTTVTVSS VL: DVVMTQSPLSLPVTLGQPASISCRSSQSLVHRNGNTYLEWYQQRPGQSPRRLIYKVSNRFSGVPDRFSGSGSGTDFTLKISRVEAEDVGVYYCYQGSHVPLTFGGGTKVEIK", "MFI, MFI": 14}

Value sought for every listed binder: MFI.
1. Hu3F6-H1/Hu3F6-L7 (antibody, human IgG1, V domains shown, Human IgG1 FES (L234F, L235E, P331S) and human Ig kappa constant domains) VH: QVQLVQSGAEVKKPGASVKVSCKASGFAFTSYWMNWVRQAPGQGLEWMGRIDPSDSEAHYHHKFWGRVTMTRDTSTSTVYMELSSLRSEDTAVYYCLRSLYGKGDYWGHGTTVTVSS VL: DVVMTQTPPSLPVNPGEPASISCRSSQSLVHRNGNTYLEWYLQKPGQSPQLLIYKVSNRFSGVPDRFSGSGSGSDFTLKISWVEAEDVGVYYCYQGSHVPLTFGGGTKVEIK
2. Hu3F6-H5/Hu3F6-L3 (antibody, human IgG1, V domains shown, Human IgG1 FES (L234F, L235E, P331S) and human Ig kappa constant domains; also called Hu3F6 VH5/VL3) VH: EVQLVQSGAEVKKPGASVKVSCKTSGFAFTSYWMNWVRQAPGQGLEWIGRIDPSDSEAHYAHKFWGRATLTVDKSSSTVYMELSSLRSEDTAVYYCLRSLYGKGDYWGHGTTVTVSS VL: DVVMTQSPLSLPVTLGQPASISCRSSQSLVHRNGNTYLEWYQQRPGQSPRLLIYKVSNRFSGVPDRFSGSGSGTDFTLKISRVEAEDVGVYYCYQGSHVPLTFGGGTKVEIK
3. Hu3F6-H1/Hu3F6-L3 (antibody, human IgG1, V domains shown, Human IgG1 FES (L234F, L235E, P331S) and human Ig kappa constant domains) VH: QVQLVQSGAEVKKPGASVKVSCKASGFAFTSYWMNWVRQAPGQGLEWMGRIDPSDSEAHYHHKFWGRVTMTRDTSTSTVYMELSSLRSEDTAVYYCLRSLYGKGDYWGHGTTVTVSS VL: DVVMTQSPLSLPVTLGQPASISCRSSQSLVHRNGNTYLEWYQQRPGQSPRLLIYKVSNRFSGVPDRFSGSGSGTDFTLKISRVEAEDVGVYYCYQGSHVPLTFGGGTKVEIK
4. Hu3F6-H6/Hu3F6-L1 (antibody, human IgG1, V domains shown, Human IgG1 FES (L234F, L235E, P331S) and human Ig kappa constant domains) VH: EVQLVQSGAEVKKPGESLRISCKASGFAFTSYWMNWVRQMPGKGLEWIGRIDPSDSEAHYHHKFWGHATLSVDKSSSTVYLQWSSLKASDTAMYYCLRSLYGKGDYWGHGTTVTVSS VL: DVVMTQSPLSLPVTLGQPASISCRSSQSLVHRNGNTYLEWFQQRPGQSPRRLIYKVSNRFSGVPDRFSGSGSGTDFTLKISRVEAEDVGVYYCYQGSHVPLTFGGGTKVEIK
5. Hu3F6-H2/Hu3F6-L7 (antibody, human IgG1, V domains shown, Human IgG1 FES (L234F, L235E, P331S) and human Ig kappa constant domains) VH: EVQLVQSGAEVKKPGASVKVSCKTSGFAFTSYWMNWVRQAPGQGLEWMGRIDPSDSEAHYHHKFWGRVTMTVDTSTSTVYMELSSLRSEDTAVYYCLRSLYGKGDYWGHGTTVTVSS VL: DVVMTQTPPSLPVNPGEPASISCRSSQSLVHRNGNTYLEWYLQKPGQSPQLLIYKVSNRFSGVPDRFSGSGSGSDFTLKISWVEAEDVGVYYCYQGSHVPLTFGGGTKVEIK

Result:
[290, 2090, 1600, 27, 1180]
